B1: HDV Ribozyme (parent)
chain: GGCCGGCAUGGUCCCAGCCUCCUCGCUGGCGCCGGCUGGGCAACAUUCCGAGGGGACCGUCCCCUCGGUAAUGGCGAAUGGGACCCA

# Variants of: B1
# assay-method-text: self-cleavage, relative activity (ratio to wild type); higher = more cleavage; co-transcriptional
measurement-label: self-cleavage

Consider the following illustrative entries.
# variant-designation, endpoint-value
records = [
    ("C63A U72G", 0.369),
    ("A43G A56G", 0.26),
    ("U9A A45C", 0.723),
    ("G11U C84A", 1.12),
    ("U65G C84U", 0.704),
]

For each listed entry, give its self-cleavage.
1. G73C G80U
2. A71G G80U
3. A8G C66G
4. A56G C85A

1. 0.141
2. 0.196
3. 0.969
4. 0.95

For each listed entry, give its self-cleavage.
1. G59U A78C
2. G54U G82C

0.113
0.237

For each listed entry, give its self-cleavage.
1. C32G C61A
2. U9G A16C
3. A16G G82U
4. U12G C57G
5. C48G A51G
6. G5C G28U
7. C64A A78U
8. G17C C58G

1. 0.121
2. 0.712
3. 0.237
4. 0.931
5. 0.997
6. 0
7. 0.285
8. 0.32

For each listed entry, give its self-cleavage.
1. G59U G82C
2. U9A C49U
3. C62G G73U

1. 0.228
2. 0.831
3. 0.193
